Test system: CSNK1G3
RECORDED_CONDITIONS: concentration: 1 μM, replicates: in singlicate; n = 1;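 note: KINOMEscan kinase panel screen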
Catalogue of %Inh readings, one per entry.
Numeric only. Scale: %

Answered examples (4):
{"CHEMICAL_SMILES": "Fc1cccc(COc2ccc(Nc3ncnc4nn5ccccc5c34)cc2Cl)c1", "%Inh, %": 3}
{"CHEMICAL_SMILES": "Clc1cc(Nc2ncnc3cc[nH]c23)ccc1OCc1ccccn1", "%Inh, %": 0}
{"CHEMICAL_SMILES": "Fc1cccc(COc2ccc(Nc3ncnc4cc[nH]c34)cc2Cl)c1", "%Inh, %": 4}
{"CHEMICAL_SMILES": "Cl.c1ccc(Cn2ccc3cc(Nc4ncnc5ccccc45)ccc32)cc1", "%Inh, %": 22}

Entry OCCOCCn1ccc2ncnc(Nc3ccc(Oc4cccc(Cl)c4)c(Cl)c3)c21 : reported %Inh = ? 0

Moving on to the next molecule: O=C(Nc1ccccc1)Nc1ccc(Oc2ccc3nccn3n2)cc1 29

----------
Test system: DRAK2
Construct: gene STK17B
RECORDED_CONDITIONS: concentration: 1 μM, replicates: in singlicate; n = 1
Catalogue of %Inh readings, one per entry.
Numeric only. Scale: %

Answered examples (2):
{"CHEMICAL_SMILES": "COc1ccc(-c2oc3ncnc(N)c3c2-c2ccc(OC)cc2)cc1", "RESULT_TYPE": "%Inh", "READOUT_NUMBER": 0}
{"CHEMICAL_SMILES": "Cn1cc(-c2ccc3c(c2)CCN3C(=O)Cc2cccc(C(F)(F)F)c2)c2c(N)ncnc21", "RESULT_TYPE": "%Inh", "READOUT_NUMBER": 0}

Entry FC(F)(F)c1ccc(-c2cc(-c3c[nH]nc3-c3ccccn3)ccn2)cc1 : reported %Inh = ? 0

----------
Catalogue of %Inh readings, one per entry.
Tested on: CDK5
RECORDED_CONDITIONS: concentration: 1 μM, replicates: in singlicate; n = 1
Numeric only. Scale: %

Entry COc1ccc(Nc2nccc(N3CCC(NC(=O)Nc4ccc5c(c4)OCO5)C3)n2)cc1 (stereo not drawn) [GSK1379745] : reported %Inh = ? 2

Moving on to the next molecule: Cl.c1ccc(Cn2ncc3cc(Nc4ncnc5ccccc45)ccc32)cc1 [GW273749] 0

Moving on to the next molecule: O=C(c1ccc(-c2cc(-c3c[nH]nc3-c3ccccn3)ccn2)cc1)N1CCCC1 [GW792479] 38

----------
Tested on: STK16
RECORDED_CONDITIONS: concentration: 1 μM, replicates: in singlicate; n = 1
Given measured %Inh, output TRUE if it is greater than or equal to 3% and FALSE if not.

Study these solved cases before continuing.
{"CHEMICAL_SMILES": "Cn1cc(-c2ccc3c(c2)CCN3C(=O)Cc2cccc(C(F)(F)F)c2)c2c(N)ncnc21", "CLASS_NAME": "TRUE"}
{"CHEMICAL_SMILES": "CCc1nc(-c2cccc(C)c2)c(-c2ccnc(NC(=O)c3ccccc3)c2)s1", "CLASS_NAME": "TRUE"}
{"CHEMICAL_SMILES": "CCn1c(-c2ccncc2)nc2cnccc21", "CLASS_NAME": "FALSE"}
{"CHEMICAL_SMILES": "CCc1nc(-c2cccc(N(C)S(=O)(=O)c3ccccc3)c2)c(-c2ccnc(Nc3ccc(N4CCN(C(C)=O)CC4)nc3)n2)s1", "CLASS_NAME": "TRUE"}
{"CHEMICAL_SMILES": "Cl.Fc1ccccc1COc1ccc(Nc2ncnc3ccc(-c4nnc(C(F)(F)F)o4)cc23)cc1Cl", "CLASS_NAME": "FALSE"}

Could you tell me if the measured %Inh of CS(=O)(=O)CCNCc1nc(-c2ccc3ncnc(Nc4ccc(OCc5cccc(F)c5)c(Cl)c4)c3c2)cs1.Cl reaches 3% or more? TRUE

Moving on to the next molecule: Fc1cccc(COc2ccc(Nc3ncnc4nn5ccccc5c34)cc2Cl)c1 TRUE

----------
Test system: CLK1
RECORDED_CONDITIONS: concentration: 1 μM, replicates: in singlicate; n = 1
Catalogue of %Inh readings, one per entry.
Numeric only. Scale: %

{"COMPOUND": "Cl.Cl.c1ccc(-c2cc3ccncc3cc2OC2CCNCC2)cc1 [GSK1122999]", "%Inh [%]": 64}
{"COMPOUND": "Nc1nc(-c2ccccn2)c(-c2ccnc3ccccc23)s1 [GW548057]", "%Inh [%]": 14}
{"COMPOUND": "Nc1nc(-c2ccc3c(N)n[nH]c3c2)cc(N2CCC[C@@H](C(=O)Nc3ccccc3)C2)n1.O=C(O)C(F)(F)F.O=C(O)C(F)(F)F [GSK2288359]", "%Inh [%]": 45}
{"COMPOUND": "CCc1nc(-c2cccc(N(C)S(=O)(=O)c3ccccc3)c2)c(-c2ccnc(Nc3ccc(N4CCN(C(C)=O)CC4)nc3)n2)s1 [GSK1645895]", "%Inh [%]": 25}
{"COMPOUND": "Cc1cc(N2CCC(NS(=O)(=O)c3ccc(F)cc3)CC2)nc(Nc2cccc(C#N)c2)n1.O=C(O)C(F)(F)F [GSK1653537]", "%Inh [%]": 14}

Recall the recorded %Inh for Clc1ccc(-c2cc(-c3c[nH]nc3-c3ccccn3)ccn2)cc1 [GW681251] with CLK1 and state it. 13

Moving on to the next compound: COC(=O)c1cccc(NC(=O)NCCNc2ccnc(Nc3ccc(F)cc3)n2)c1 [GSK1379883] 15

Moving on to the next compound: COc1ccc(-c2oc3ncnc(N)c3c2-c2ccc(OC)cc2)cc1 [SB-589132] 29

Moving on to the next compound: C[C@H]1CC[C@@H](C(=O)Nc2ccccc2)CN1c1cc(-c2ccc3c(N)n[nH]c3c2)nc(N)n1 [GSK2283293] 18

----------
Tested on: INSRR
RECORDED_CONDITIONS: concentration: 1 μM, replicates: in singlicate; n = 1
RESULT_TYPE: %Inh (%)
Numeric only. Scale: %

Answered examples (3):
{"CHEMICAL_SMILES": "Fc1cccc(COc2ccc(Nc3ncnc4cc[nH]c34)cc2Cl)c1", "TARGET_OF_ASSAY": "INSRR", "RESULT_TYPE": "%Inh", "DISPLAY_UNIT": "%", "READOUT_NUMBER": 0}
{"CHEMICAL_SMILES": "O=C(CCO)NCCn1ccc2ncnc(Nc3ccc(Oc4cccc(C(F)(F)F)c4)c(Cl)c3)c21", "TARGET_OF_ASSAY": "INSRR", "RESULT_TYPE": "%Inh", "DISPLAY_UNIT": "%", "READOUT_NUMBER": 0}
{"CHEMICAL_SMILES": "COC(=O)c1c(-c2ccccc2)c2cc(Cl)ccc2c(=O)n1Cc1ccc(S(C)(=O)=O)cc1", "TARGET_OF_ASSAY": "INSRR", "RESULT_TYPE": "%Inh", "DISPLAY_UNIT": "%", "READOUT_NUMBER": 0}

Entry Nc1nccc2scc(-c3ccc4c(c3)CCN4C(=O)Cc3cc(F)ccc3F)c12 : reported %Inh = ? 0

Moving on to the next compound: Clc1cccc(-c2nc(Nc3ccncc3)c3ccccc3n2)c1 4

----------
Tested on: PRKG1
RECORDED_CONDITIONS: concentration: 1 μM, replicates: in singlicate; n = 1
RESULT_TYPE: %Inh (%)
Numeric only. Scale: %

Answered examples (2):
{"COMPOUND": "Cn1cc(-c2ccc3c(c2)CCN3C(=O)Cc2cccc(C(F)(F)F)c2)c2c(N)ncnc21 [GSK2606414]", "TARGET_OF_ASSAY": "PRKG1", "%Inh (%)": 19}
{"COMPOUND": "O=C(Nc1ccccc1F)NC1CCN(c2ccnc(Nc3ccc(F)cc3)n2)C1 (stereo not drawn) [GSK1379722]", "TARGET_OF_ASSAY": "PRKG1", "%Inh (%)": 0}

Recall the recorded %Inh for CC(C)(C)c1ccc(-n2cnc3c(N)ncnc32)cc1 [SKF-97263] with PRKG1 and state it. 11

Moving on to the next compound: Cn1ccc2ncnc(Oc3ccc(NC(=O)Nc4cccnc4)c(Cl)c3)c21 0

Moving on to the next compound: Cc1ccc(O)cc1Nc1cc(C(F)(F)F)nc2ccc(-c3ccncc3)cc12 [GW630823] 7

Moving on to the next compound: Fc1cccc(COc2ccc(Nc3ncnc4sc(-c5ccc[nH]5)cc34)cc2Cl)c1 [GW707818] 0

Moving on to the next compound: O=c1cc(N2CCOCC2)nc2n(Cc3cccc(Cl)c3)ccn12 [GSK2296823] 0

Moving on to the next compound: O=C(CCO)NCCn1ccc2ncnc(Nc3ccc(Oc4cccc(C(F)(F)F)c4)c(Cl)c3)c21 13

Moving on to the next compound: COC(=O)c1cccc(NC(=O)NCCNc2ccnc(Nc3ccc(F)cc3)n2)c1 [GSK1379883] 7
